- runDescription: Comparative tests for stability of the crystalline form E and other crystalline forms (storage, total impurity and content)
- Assay type: physicochemical
- setupConditions: Refrigerating 6° C., month 6
endpointName: Total impurity (%)

| compound | resultUnits | Total impurity |
| --- | --- | --- |
| C[C@@H](O)[C@H]1C(=O)N2C(C(=O)[O-])=C(S[C@@H]3CN[C@H](C(=O)Nc4cccc(C(=O)O)c4)C3)[C@H](C)[C@H]12.[Na+] [Crystalline form C, ertapenem sodium] | % | 1.4 |

A. C[C@@H](O)[C@H]1C(=O)N2C(C(=O)[O-])=C(S[C@@H]3CN[C@H](C(=O)Nc4cccc(C(=O)O)c4)C3)[C@H](C)[C@H]12.[Na+] [Crystalline form A, ertapenem sodium]
B. C[C@@H](O)[C@H]1C(=O)N2C(C(=O)[O-])=C(S[C@@H]3CN[C@H](C(=O)Nc4cccc(C(=O)O)c4)C3)[C@H](C)[C@H]12.[Na+] [Amorphous, ertapenem sodium]
IN: Could you please tell me which of these two has the higher Total impurity: A or B ? Reply briefly: the label of your chosen item.
OUT: B

====

- runDescription: Comparative tests for stability of the crystalline form E and other crystalline forms (storage, total impurity and content)
- Type: physicochemical
- setupConditions: Refrigerating 6° C., month 0
- Description: Comparative tests for stability of the crystalline form E and other crystalline forms. […]
endpointName: Total impurity (%)

Consider the following illustrative entries.
| molecule | endpointName | readoutValue |
| --- | --- | --- |
| C[C@@H](O)[C@H]1C(=O)N2C(C(=O)[O-])=C(S[C@@H]3CN[C@H](C(=O)Nc4cccc(C(=O)O)c4)C3)[C@H](C)[C@H]12.[Na+] [Amorphous, ertapenem sodium] | Total impurity | 1.2 |
| C[C@@H](O)[C@H]1C(=O)N2C(C(=O)[O-])=C(S[C@@H]3CN[C@H](C(=O)Nc4cccc(C(=O)O)c4)C3)[C@H](C)[C@H]12.[Na+] [Crystalline form B, ertapenem sodium] | Total impurity | 0.8 |
| C[C@@H](O)[C@H]1C(=O)N2C(C(=O)[O-])=C(S[C@@H]3CN[C@H](C(=O)Nc4cccc(C(=O)O)c4)C3)[C@H](C)[C@H]12.[Na+] [Crystalline form C, ertapenem sodium] | Total impurity | 0.8 |
| C[C@@H](O)[C@H]1C(=O)N2C(C(=O)[O-])=C(S[C@@H]3CN[C@H](C(=O)Nc4cccc(C(=O)O)c4)C3)[C@H](C)[C@H]12.[Na+] (relative stereo) [Crystalline form E] | Total impurity | 0.8 |

a. C[C@@H](O)[C@H]1C(=O)N2C(C(=O)[O-])=C(S[C@@H]3CN[C@H](C(=O)Nc4cccc(C(=O)O)c4)C3)[C@H](C)[C@H]12.[Na+] [Crystalline form D, ertapenem sodium]
b. C[C@@H](O)[C@H]1C(=O)N2C(C(=O)[O-])=C(S[C@@H]3CN[C@H](C(=O)Nc4cccc(C(=O)O)c4)C3)[C@H](C)[C@H]12.[Na+] [Crystalline form A, ertapenem sodium]
IN: Could you point out whether the larger Total impurity belongs to a or to b ? Answer with the label corresponding to your selection.
OUT: a

====

- runDescription: Comparative tests for stability of the crystalline form E and other crystalline forms (storage, total impurity and content)
- Format: physicochemical
- setupConditions: Refrigerating 6° C., month 0
endpointName: Content (%)

| compound | resultUnits | Content |
| --- | --- | --- |
| C[C@@H](O)[C@H]1C(=O)N2C(C(=O)[O-])=C(S[C@@H]3CN[C@H](C(=O)Nc4cccc(C(=O)O)c4)C3)[C@H](C)[C@H]12.[Na+] [Crystalline form D, ertapenem sodium] | % | 98.8 |
| C[C@@H](O)[C@H]1C(=O)N2C(C(=O)[O-])=C(S[C@@H]3CN[C@H](C(=O)Nc4cccc(C(=O)O)c4)C3)[C@H](C)[C@H]12.[Na+] [Crystalline form B, ertapenem sodium] | % | 99.1 |
| C[C@@H](O)[C@H]1C(=O)N2C(C(=O)[O-])=C(S[C@@H]3CN[C@H](C(=O)Nc4cccc(C(=O)O)c4)C3)[C@H](C)[C@H]12.[Na+] [Crystalline form C, ertapenem sodium] | % | 99.2 |
| C[C@@H](O)[C@H]1C(=O)N2C(C(=O)[O-])=C(S[C@@H]3CN[C@H](C(=O)Nc4cccc(C(=O)O)c4)C3)[C@H](C)[C@H]12.[Na+] [Crystalline form A, ertapenem sodium] | % | 99.2 |
| C[C@@H](O)[C@H]1C(=O)N2C(C(=O)[O-])=C(S[C@@H]3CN[C@H](C(=O)Nc4cccc(C(=O)O)c4)C3)[C@H](C)[C@H]12.[Na+] [Amorphous, ertapenem sodium] | % | 98.5 |
| C[C@@H](O)[C@H]1C(=O)N2C(C(=O)[O-])=C(S[C@@H]3CN[C@H](C(=O)Nc4cccc(C(=O)O)c4)C3)[C@H](C)[C@H]12.[Na+] (relative stereo) [Crystalline form E] | % | 99.1 |

====

- runDescription: Comparative tests for stability of the crystalline form E and other crystalline forms (storage, total impurity and content)
- Assay type: physicochemical
- setupConditions: Refrigerating 6° C., month 9
endpointName: Content (%)

| compound | Content [%] |
| --- | --- |
| C[C@@H](O)[C@H]1C(=O)N2C(C(=O)[O-])=C(S[C@@H]3CN[C@H](C(=O)Nc4cccc(C(=O)O)c4)C3)[C@H](C)[C@H]12.[Na+] (relative stereo) [Crystalline form E] | 97.5 |
| C[C@@H](O)[C@H]1C(=O)N2C(C(=O)[O-])=C(S[C@@H]3CN[C@H](C(=O)Nc4cccc(C(=O)O)c4)C3)[C@H](C)[C@H]12.[Na+] [Crystalline form D, ertapenem sodium] | 94.7 |
| C[C@@H](O)[C@H]1C(=O)N2C(C(=O)[O-])=C(S[C@@H]3CN[C@H](C(=O)Nc4cccc(C(=O)O)c4)C3)[C@H](C)[C@H]12.[Na+] [Crystalline form A, ertapenem sodium] | 97.6 |
| C[C@@H](O)[C@H]1C(=O)N2C(C(=O)[O-])=C(S[C@@H]3CN[C@H](C(=O)Nc4cccc(C(=O)O)c4)C3)[C@H](C)[C@H]12.[Na+] [Amorphous, ertapenem sodium] | 92.3 |
| C[C@@H](O)[C@H]1C(=O)N2C(C(=O)[O-])=C(S[C@@H]3CN[C@H](C(=O)Nc4cccc(C(=O)O)c4)C3)[C@H](C)[C@H]12.[Na+] [Crystalline form B, ertapenem sodium] | 97.5 |
| C[C@@H](O)[C@H]1C(=O)N2C(C(=O)[O-])=C(S[C@@H]3CN[C@H](C(=O)Nc4cccc(C(=O)O)c4)C3)[C@H](C)[C@H]12.[Na+] [Crystalline form C, ertapenem sodium] | 97.8 |

====

- runDescription: Comparative tests for stability of the crystalline form E and other crystalline forms (storage, total impurity and content)
- Type: physicochemical
- setupConditions: Refrigerating 6° C., month 6
endpointName: Total impurity (%)

| molecule | readoutValue |
| --- | --- |
| C[C@@H](O)[C@H]1C(=O)N2C(C(=O)[O-])=C(S[C@@H]3CN[C@H](C(=O)Nc4cccc(C(=O)O)c4)C3)[C@H](C)[C@H]12.[Na+] (relative stereo) [Crystalline form E] | 1.6 |

1. C[C@@H](O)[C@H]1C(=O)N2C(C(=O)[O-])=C(S[C@@H]3CN[C@H](C(=O)Nc4cccc(C(=O)O)c4)C3)[C@H](C)[C@H]12.[Na+] [Crystalline form D, ertapenem sodium]
2. C[C@@H](O)[C@H]1C(=O)N2C(C(=O)[O-])=C(S[C@@H]3CN[C@H](C(=O)Nc4cccc(C(=O)O)c4)C3)[C@H](C)[C@H]12.[Na+] [Crystalline form B, ertapenem sodium]
IN: Of the pair 1 and 2 , name the member with the lesser recorded Total impurity. I would appreciate it if you answered with the label of your choice.
OUT: 2
(2: 1.7%, 1: 3.1%)

====

- runDescription: Comparative tests for stability of the crystalline form E and other crystalline forms (storage, total impurity and content)
- Format: physicochemical
- setupConditions: Freezing −20° C., month 6
endpointName: Total impurity (%)

Answered cases to consult:
| molecule | readoutValue |
| --- | --- |
| C[C@@H](O)[C@H]1C(=O)N2C(C(=O)[O-])=C(S[C@@H]3CN[C@H](C(=O)Nc4cccc(C(=O)O)c4)C3)[C@H](C)[C@H]12.[Na+] [Crystalline form D, ertapenem sodium] | 1.1 |
| C[C@@H](O)[C@H]1C(=O)N2C(C(=O)[O-])=C(S[C@@H]3CN[C@H](C(=O)Nc4cccc(C(=O)O)c4)C3)[C@H](C)[C@H]12.[Na+] [Crystalline form B, ertapenem sodium] | 0.9 |
| C[C@@H](O)[C@H]1C(=O)N2C(C(=O)[O-])=C(S[C@@H]3CN[C@H](C(=O)Nc4cccc(C(=O)O)c4)C3)[C@H](C)[C@H]12.[Na+] [Crystalline form A, ertapenem sodium] | 0.7 |
| C[C@@H](O)[C@H]1C(=O)N2C(C(=O)[O-])=C(S[C@@H]3CN[C@H](C(=O)Nc4cccc(C(=O)O)c4)C3)[C@H](C)[C@H]12.[Na+] [Crystalline form C, ertapenem sodium] | 0.8 |

P. C[C@@H](O)[C@H]1C(=O)N2C(C(=O)[O-])=C(S[C@@H]3CN[C@H](C(=O)Nc4cccc(C(=O)O)c4)C3)[C@H](C)[C@H]12.[Na+] (relative stereo) [Crystalline form E]
Q. C[C@@H](O)[C@H]1C(=O)N2C(C(=O)[O-])=C(S[C@@H]3CN[C@H](C(=O)Nc4cccc(C(=O)O)c4)C3)[C@H](C)[C@H]12.[Na+] [Amorphous, ertapenem sodium]
IN: Pick one, P or Q : lowest reported Total impurity. Selection: enter the item's label.
OUT: P
(P: 0.8%, Q: 1.3%)
